Reference for the values: ChEMBL document CHEMBL1130164

# log10 IC50 values compiled below
- Study System: Protein kinase C alpha type (Homo sapiens, UniProt P17252)
- Assay Protocol: Inhibitory concentration against recombinant human Protein kinase C alpha isozyme
Please note: log10 values; quantity IC50; unit µM.

A selection of reference data follows.
compound=CS(=O)(=O)N1C[C@@H](NC(=O)c2ccc(O)cc2)[C@H](OC(=O)c2cc(O)c(C(=O)c3c(O)cccc3C(=O)O)c(O)c2)C1 measured_property="log10 IC50" reported=-0.04
compound=O=C(N[C@@H]1CN2CCC(CC2)[C@H]1OC(=O)c1cc(O)c(C(=O)c2c(O)cccc2C(=O)O)c(O)c1)c1ccc(O)cc1 measured_property="log10 IC50" reported=-0.39
compound="CC1(C)C2CCC1(C)[C@@H](OC(=O)c1cc(O)c(C(=O)c3c(O)cccc3C(=O)O)c(O)c1)[C@@H]2NC(=O)c1ccc(O)cc1 (some centres not stated)" measured_property="log10 IC50" reported=-0.39

GET /value?item= NC[C@H]1C[C@@H](NC(=O)c2ccc(O)cc2)[C@H](OC(=O)c2cc(O)c(C(=O)c3c(O)cccc3C(=O)O)c(O)c2)C1 &field=log10 IC50 returns -1.70

Record summary for O=C(N[C@@H]1CC(O)C[C@H]1OC(=O)c1cc(O)c(C(=O)c2c(O)cccc2C(=O)O)c(O)c1)c1ccc(O)cc1 (some centres not stated) : reported log10 IC50 = -1.40

// O=C(N[C@@H]1C[C@@H](CO)C[C@H]1OC(=O)c1cc(O)c(C(=O)c2c(O)cccc2C(=O)O)c(O)c1)c1ccc(O)cc1 : log10 IC50 value = -1.10

Consider CC(=O)N1C[C@@H](NC(=O)c2ccc(O)cc2)[C@H](OC(=O)c2cc(O)c(C(=O)c3c(O)cccc3C(=O)O)c(O)c2)C1 . Its measured log10 IC50 is 0.08

* * *

Measured IC50 of individual entries
- Study System: Protein kinase C zeta type (Homo sapiens, UniProt Q05513)
- Sequence (Q05513 whole entry): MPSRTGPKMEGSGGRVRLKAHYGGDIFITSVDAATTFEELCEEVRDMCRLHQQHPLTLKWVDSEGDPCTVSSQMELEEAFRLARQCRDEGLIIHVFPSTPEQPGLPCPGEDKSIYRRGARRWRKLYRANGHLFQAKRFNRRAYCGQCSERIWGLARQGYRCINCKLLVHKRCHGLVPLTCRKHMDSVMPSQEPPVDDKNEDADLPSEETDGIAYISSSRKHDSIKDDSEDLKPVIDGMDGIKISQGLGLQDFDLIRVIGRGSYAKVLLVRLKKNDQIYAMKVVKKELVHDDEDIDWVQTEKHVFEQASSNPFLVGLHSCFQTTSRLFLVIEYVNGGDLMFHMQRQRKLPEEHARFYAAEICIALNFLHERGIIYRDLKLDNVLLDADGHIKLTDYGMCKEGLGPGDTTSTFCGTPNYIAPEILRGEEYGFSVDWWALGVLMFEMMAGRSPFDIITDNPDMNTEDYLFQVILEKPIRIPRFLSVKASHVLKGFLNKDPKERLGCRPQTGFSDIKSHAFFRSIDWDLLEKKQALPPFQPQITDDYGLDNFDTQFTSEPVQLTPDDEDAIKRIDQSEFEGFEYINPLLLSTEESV
- Assay Protocol: Inhibitory concentration against recombinant human Protein kinase C zeta isozyme

compound=NC[C@H]1C[C@@H](NC(=O)c2ccc(O)cc2)[C@H](OC(=O)c2cc(O)c(C(=O)c3c(O)cccc3C(=O)O)c(O)c2)C1 measured_property=IC50 reported="2.8 µM"
compound=N[C@@H]1C[C@@H](NC(=O)c2ccc(O)cc2)[C@H](OC(=O)c2cc(O)c(C(=O)c3c(O)cccc3C(=O)O)c(O)c2)C1 measured_property=IC50 reported="1.2 µM"
compound=O=C(N[C@H]1CNCCC[C@@H]1OC(=O)c1cc(O)c(C(=O)c2c(O)cccc2C(=O)O)c(O)c1)c1ccc(O)cc1 measured_property=IC50 reported="> 150 µM"

response.value for CC1(C)C2CCC1(C)[C@@H](OC(=O)c1cc(O)c(C(=O)c3c(O)cccc3C(=O)O)c(O)c1)[C@@H]2NC(=O)c1ccc(O)cc1 (stereo partly drawn) (field: IC50) = > 50 µM

Given item CNC(=O)N1C[C@@H](NC(=O)c2ccc(O)cc2)[C@H](OC(=O)c2cc(O)c(C(=O)c3c(O)cccc3C(=O)O)c(O)c2)C1 , the value recorded as its IC50 is > 50 µM

Given item CS(=O)(=O)N1C[C@@H](NC(=O)c2ccc(O)cc2)[C@H](OC(=O)c2cc(O)c(C(=O)c3c(O)cccc3C(=O)O)c(O)c2)C1 , the value recorded as its IC50 is > 150 µM

Lab note: measured IC50 of NC[C@@H]1C[C@@H](NC(=O)c2ccc(O)cc2)[C@H](OC(=O)c2cc(O)c(C(=O)c3c(O)cccc3C(=O)O)c(O)c2)C1 was 3.1 µM

For reference, reported IC50 for COC(=O)N1C[C@@H](NC(=O)c2ccc(O)cc2)[C@H](OC(=O)c2cc(O)c(C(=O)c3c(O)cccc3C(=O)O)c(O)c2)C1 stands at > 150 µM

IC50 in this record for O=C(N[C@@H]1CS(=O)(=O)CCC[C@H]1OC(=O)c1cc(O)c(C(=O)c2c(O)cccc2C(=O)O)c(O)c1)c1ccc(O)cc1 : > 150 µM

// O=C(N[C@@H]1COCCC[C@H]1OC(=O)c1cc(O)c(C(=O)c2c(O)cccc2C(=O)O)c(O)c1)c1ccc(O)cc1 : IC50 value = > 150 µM

Measured IC50 of O=C(NC1CNCCCC1OC(=O)c1cc(O)c(C(=O)c2c(O)cccc2C(=O)O)c(O)c1)c1ccc(O)cc1 (racemic) : 3.5 µM

Lookup result for O=C(N[C@@H]1CNCCC[C@H]1OC(=O)c1cc(O)c(C(=O)c2c(O)cccc2C(=O)O)c(O)c1)c1ccc(O)cc1 [BALANOL] ; measured IC50: 7.4 µM

Reported IC50 of CC(=O)N1C[C@@H](NC(=O)c2ccc(O)cc2)[C@H](OC(=O)c2cc(O)c(C(=O)c3c(O)cccc3C(=O)O)c(O)c2)C1 : > 150 µM
